Each recorded value in this set is attributed to patent US12195482B1.

- study-target: recombinant human MER (Homo sapiens, UniProt Q12866)
- Sequence (Q12866 21-999): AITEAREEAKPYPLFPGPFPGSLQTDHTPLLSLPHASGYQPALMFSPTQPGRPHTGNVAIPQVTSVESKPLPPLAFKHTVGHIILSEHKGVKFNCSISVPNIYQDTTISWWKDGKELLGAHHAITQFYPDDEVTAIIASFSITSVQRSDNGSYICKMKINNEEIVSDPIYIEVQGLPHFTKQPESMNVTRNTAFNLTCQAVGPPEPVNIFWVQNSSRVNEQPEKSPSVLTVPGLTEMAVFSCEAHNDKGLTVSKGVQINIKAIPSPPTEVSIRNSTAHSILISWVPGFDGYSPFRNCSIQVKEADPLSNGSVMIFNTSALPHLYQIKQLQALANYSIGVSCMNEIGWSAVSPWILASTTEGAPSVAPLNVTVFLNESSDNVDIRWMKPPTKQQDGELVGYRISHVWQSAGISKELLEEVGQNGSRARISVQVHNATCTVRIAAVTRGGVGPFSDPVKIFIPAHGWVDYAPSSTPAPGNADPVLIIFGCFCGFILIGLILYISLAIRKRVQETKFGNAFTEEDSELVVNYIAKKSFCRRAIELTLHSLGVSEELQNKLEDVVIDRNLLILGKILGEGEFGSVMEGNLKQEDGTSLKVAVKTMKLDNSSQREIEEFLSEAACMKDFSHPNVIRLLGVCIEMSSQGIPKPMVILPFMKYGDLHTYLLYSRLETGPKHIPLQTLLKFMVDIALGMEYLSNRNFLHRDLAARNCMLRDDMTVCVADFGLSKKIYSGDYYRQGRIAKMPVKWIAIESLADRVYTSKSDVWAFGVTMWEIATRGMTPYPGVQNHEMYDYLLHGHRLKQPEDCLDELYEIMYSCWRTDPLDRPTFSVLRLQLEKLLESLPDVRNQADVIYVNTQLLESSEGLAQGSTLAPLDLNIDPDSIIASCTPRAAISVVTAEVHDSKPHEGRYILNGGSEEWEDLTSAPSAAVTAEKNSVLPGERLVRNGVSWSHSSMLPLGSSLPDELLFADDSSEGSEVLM
- assay: Biochemical potency, HTRF KinEASE-TK kinase assay
- measurement-conditions: 1 nM MER, 700 μM ATP
pIC50: −log10 of the molar value.
parameter: pIC50

compound="O=C(c1cccnc1-c1ccc(-c2n[nH]c3ncc(-c4ccc5c(c4)CC[C@@H](N4C6COCC4C6)CC5)cc23)cc1)N1CCCC1 [Example 4]" study_target="recombinant human MER (Homo sapiens, UniProt Q12866)" parameter=pIC50 experimental_result="6.00 to 7.00"

input: Quick one: pIC50 for Cc1ccnnc1-c1ccc(-c2c[nH]c3ncc(-c4ccc5c(c4)CC[C@@](C)(N4CCC[C@H]4C)CC5)cc23)cc1 [Example 51] ?
output: > 7.00

input: Looking for the measured pIC50 of O=C1OCCN1c1nccnc1-c1ccc(-c2n[nH]c3ncc(-c4ccc5c(c4)CC[C@@H](N4C6COCC4C6)CC5)cc23)cc1 [Example 126] , can you help?
output: 6.00 to 7.00

---

Recorded IC50, one value per entry.
- study-target: recombinant human MER (Homo sapiens, UniProt Q12866)
- Construct: purchased Invitrogen
- assay: Biochemical potency, HTRF KinEASE-TK kinase assay
- measurement-conditions: 1 nM MER, 700 μM ATP

Example entries and their recorded answers appear below.
compound="Fc1cccnc1-c1ccc(-c2c[nH]c3ncc(-c4ccc5c(c4)CC[C@@H](N4C6COCC4C6)CC5)cc23)cc1 [Example 42]" study_target="recombinant human MER (Homo sapiens, UniProt Q12866)" experimental_result="100 to 1000 nM"
compound="c1ccc(-n2cc(-c3n[nH]c4ncc(-c5ccc6c(c5)CC[C@@H](N5C7COCC5C7)CC6)cc34)cn2)nc1 [Example 168]" study_target="recombinant human MER (Homo sapiens, UniProt Q12866)" experimental_result="100 to 1000 nM"
compound="Cc1cccnc1-c1ccc(-c2n[nH]c3ncc(-c4ccc5c(c4)CC[C@@](C)(N4CCC[C@H]4C)CC5)cc23)nc1 [Example 105]" study_target="recombinant human MER (Homo sapiens, UniProt Q12866)" experimental_result="< 100 nM"

input: Reported IC50 for recombinant human MER (Homo sapiens, UniProt Q12866), given c1ccc(-c2ccc(-c3c[nH]c4ncc(-c5ccc6c(c5)CC[C@@H](N[C@H]5CCCOC5)CC6)cc34)cc2)nc1 [Example 32] ?
output: 100 to 1000 nM

---

- study-target: p-AXL (Homo sapiens, UniProt P30530)
- Sequence (P30530 26-894): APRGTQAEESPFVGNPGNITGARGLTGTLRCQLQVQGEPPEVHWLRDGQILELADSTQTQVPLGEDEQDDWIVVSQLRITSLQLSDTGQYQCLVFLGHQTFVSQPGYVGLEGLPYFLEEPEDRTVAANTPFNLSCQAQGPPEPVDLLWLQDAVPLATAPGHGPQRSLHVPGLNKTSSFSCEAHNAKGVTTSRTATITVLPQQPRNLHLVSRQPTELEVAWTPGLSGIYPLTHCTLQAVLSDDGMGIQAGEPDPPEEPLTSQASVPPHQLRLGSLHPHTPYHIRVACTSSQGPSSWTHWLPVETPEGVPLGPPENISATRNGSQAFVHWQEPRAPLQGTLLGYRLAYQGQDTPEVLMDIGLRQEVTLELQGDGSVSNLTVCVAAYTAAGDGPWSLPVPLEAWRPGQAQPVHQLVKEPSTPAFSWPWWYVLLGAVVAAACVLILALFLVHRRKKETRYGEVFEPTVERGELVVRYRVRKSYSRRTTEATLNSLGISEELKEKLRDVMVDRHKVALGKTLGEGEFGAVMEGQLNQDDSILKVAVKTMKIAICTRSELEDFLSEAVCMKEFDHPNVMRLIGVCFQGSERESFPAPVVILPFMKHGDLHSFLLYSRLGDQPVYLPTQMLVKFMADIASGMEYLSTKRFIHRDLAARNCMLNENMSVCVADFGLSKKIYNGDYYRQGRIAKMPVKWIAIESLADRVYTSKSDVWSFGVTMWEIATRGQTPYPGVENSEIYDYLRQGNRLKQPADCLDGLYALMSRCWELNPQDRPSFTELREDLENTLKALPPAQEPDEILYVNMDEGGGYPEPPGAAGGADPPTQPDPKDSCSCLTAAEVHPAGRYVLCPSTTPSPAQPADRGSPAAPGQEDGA
- assay: Axl phosphorylation inhibition ELISA in HEK293T cells transfected with NanoLuc-tagged AXL
- measurement-conditions: 1 h compound incubation, media (OptiMEM)
pIC50: −log10 of the molar value.
parameter: pIC50

Some compounds with recorded pIC50:
smiles_record=CN(C)C(=O)c1ccccc1-c1ccc(-c2c[nH]c3ncc(-c4ccc5c(c4)CC[C@@H](N4C6COCC4C6)CC5)cc23)cn1 experimental_result="6.00 to 7.00"
smiles_record=c1cc2c(c(-c3ccc(-c4n[nH]c5ncc(-c6ccc7c(c6)CC[C@@H](N6C8COCC6C8)CC7)cc45)cc3)n1)NCCO2 experimental_result="6.00 to 7.00"

Turning now to a further compound:
input: Give its pIC50 value. Item: "C[C@@H]1CCCN1[C@@]1(C)CCc2ccc(-c3cnc4[nH]cc(-c5ccc(-c6ccccn6)cc5)c4c3)cc2CC1"
output: 6.00 to 7.00

---

- study-target: recombinant human MER (Homo sapiens, UniProt Q12866)
- assay: Biochemical potency, HTRF KinEASE-TK kinase assay
- measurement-conditions: 1 nM MER, 700 μM ATP
Reported IC50 values for a set of compounds

Below, each entry is followed by its recorded IC50 result.
compound="Cc1cc(-c2n[nH]c3ncc(-c4ccc5c(c4)CC[C@@H](N4C6COCC4C6)CC5)cc23)ccc1-c1ccccn1 [Example 159]" parameter=IC50 experimental_result="0.1 to 1 µM"
compound="C[C@@H]1CCCN1[C@@]1(C)CCc2ccc(-c3cnc4[nH]nc(-c5ccc(-c6nccs6)cc5)c4c3)cc2CC1 [Example 91]" parameter=IC50 experimental_result="0.1 to 1 µM"
compound="FC(F)(F)Oc1cccnc1-c1ccc(-c2c[nH]c3ncc(-c4ccc5c(c4)CC[C@@H](N4C6COCC4C6)CC5)cc23)cc1 [Example 103]" parameter=IC50 experimental_result="> 1 µM"

input: May I ask what IC50 has been recorded for Cc1ncc(C)c(-c2ccc(-c3n[nH]c4ncc(-c5ccc6c(c5)CC[C@@H](N5C7COCC5C7)CC6)cc34)cc2)n1 [Example 122] ?
output: 0.1 to 1 µM

input: Name the reported IC50 value associated with the compound Cc1nn(C)nc1-c1ccc(-c2n[nH]c3ncc(-c4ccc5c(c4)CC[C@@H](N4C6COCC4C6)CC5)cc23)cc1 [Example 14]
output: 0.1 to 1 µM

input: For COc1ccnc(-c2ccc(-c3n[nH]c4ncc(-c5ccc6c(c5)CC[C@@H](N5C7COCC5C7)CC6)cc34)cc2)c1C [Example 87] , what is its reported IC50?
output: 0.1 to 1 µM
